Where do these numbers come from? They come from patent US9675592B2.

pKd: −log10 of the molar value.
Notes on pKd obtained with VraR (Staphylococcus aureus, UniProt Q7A4R9).
Sequence (Q7A4R9 whole entry): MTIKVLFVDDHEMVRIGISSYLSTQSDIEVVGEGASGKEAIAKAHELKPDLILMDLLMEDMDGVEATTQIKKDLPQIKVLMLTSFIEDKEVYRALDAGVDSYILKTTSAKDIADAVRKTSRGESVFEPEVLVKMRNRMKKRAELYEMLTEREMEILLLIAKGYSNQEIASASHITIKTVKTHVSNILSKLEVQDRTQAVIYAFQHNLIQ

Request: Given the molecule O=C(Nc1nnc(-c2cc(Cl)ccc2Cl)o1)c1ccc(Cl)s1 [F2518-0042] , what is its reported pKd?
Response: < 4.00

Request: Try the molecule CSc1cccc(-c2nnc(NC(=O)c3nc4ccccc4s3)o2)c1 [F2645-0188]
Response: < 4.00

Request: Would you mind doing O=C(Nc1nnc(-c2ccc(Br)cc2)o1)c1ccc(Cl)s1 [F2518-0474] as well?
Response: 4.65

* * *

Reported values of RL Ox avg for individual entries
test system: vraSR promoter (Pvra-lux reporter in strain 923); format: cell-based, Staphylococcus aureus; details: Top 40 library, with oxacillin, compound at maximum non-GI conc
Provide a numeric answer; units are not to be included.

// known answers, use as guide
- molecule: "CC(=O)Nc1ccc(Nc2cc(C(C)C)nc3c(-c4ccccc4)cnn23)cc1"
  study.target: "vraSR promoter (Pvra-lux reporter in strain 923)"
  RL Ox avg: 0.10
- molecule: "CN(C)CCCNc1cc(C(C)(C)C)nc2c(-c3ccc(Cl)cc3)cnn12"
  study.target: "vraSR promoter (Pvra-lux reporter in strain 923)"
  RL Ox avg: 0.80
- molecule: "O=C(Nc1nnc(-c2ccc(OC(F)(F)F)cc2)o1)C1(c2cccs2)CCCC1"
  study.target: "vraSR promoter (Pvra-lux reporter in strain 923)"
  RL Ox avg: 1.18
- molecule: "O=C(Nc1ccc2c(c1)OCO2)Nc1nc(-c2ccccn2)cs1"
  study.target: "vraSR promoter (Pvra-lux reporter in strain 923)"
  RL Ox avg: 0.52

Now look at this entry.
Request: Which RL Ox avg value belongs to `Cc1ccc(C)c2sc(NC(=O)c3cccs3)nc12` ?
Response: 0.15
